target: Avi-KRAS G12C (1-169) GppNHp/RAF1 RBD-3×FLAG (52-151) (Homo sapiens, UniProt P01116, G12C); construct: Avi-KRAS G12C (1-169) GppNHp; Avi (N); experiment: Raf1 RBD-KRAS G12C-GppNHp disruption assay (protein:protein interaction HTRF)
Sequence (P01116 1-169 isoform P01116-2 G12C limits assumed): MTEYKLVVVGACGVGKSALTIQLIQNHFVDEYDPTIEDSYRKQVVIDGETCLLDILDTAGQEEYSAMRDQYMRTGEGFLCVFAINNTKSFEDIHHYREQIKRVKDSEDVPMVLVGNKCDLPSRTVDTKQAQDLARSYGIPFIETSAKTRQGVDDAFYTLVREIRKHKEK
pIC50: −log10 of the molar value.
Assay Readout: pIC50

Would you please look over these solved cases?
Chemical Smiles: C=CC(=O)N1CC[C@@H](N(CC)c2nc(OC[C@@H]3C[C@@H](OC)CN3C)nc3c(F)c(-c4ccc(F)c5sc(N)c(C#N)c45)c(Cl)cc23)[C@H]1C
Target Under Test: Avi-KRAS G12C (1-169) GppNHp/RAF1 RBD-3×FLAG (52-151) (Homo sapiens, UniProt P01116, G12C)
pIC50: > 6.30
//
Chemical Smiles: C=CC(=O)N1CC[C@@H](N(C)c2nc(N3CC(N(C)C)C3)nc3c(F)c(-c4ccc(F)c5sc(N)c(C#N)c45)c(C(F)(F)F)cc23)[C@H]1C
Target Under Test: Avi-KRAS G12C (1-169) GppNHp/RAF1 RBD-3×FLAG (52-151) (Homo sapiens, UniProt P01116, G12C)
pIC50: > 6.30

Ask: Name the reported pIC50 value associated with the compound `C=CC(=O)N1CC[C@@H](N(CC)c2nc(OC[C@@H]3CCCN3C)nc3c(F)c(-c4ccc(F)c5sc(N)c(C#N)c45)c(C(F)(F)F)cc23)[C@H]1C`
Reply: > 6.30

###

Target: Avi-KRAS G12C (1-169) GppNHp/RAF1 RBD-3×FLAG (52-151) (Homo sapiens, UniProt P01116, G12C)
Construct: Avi-KRAS G12C (1-169) GppNHp; Avi (N)
Test: Raf1 RBD-KRAS G12C-GppNHp disruption assay (protein:protein interaction HTRF)
Excerpt: Biological Example 2: Disrupting KRAS G12C-Effector Binding (Protein: Protein Interaction HTRF Assay) A protein: protein interaction (PPI) Homogeneous Time Resolved Fluorescence (HTRF) assay was used to determine the effectiveness of compounds of the present disclosure in disrupting KRAS G12C protein and effector (RAF1 Ras Binding Domain (RBD)) binding. […]
Assay Readout: IC50

Would you please look over these solved cases?
Compound: C=CC(=O)N1CC[C@@H](N(CC)c2nc(OC[C@@H]3C[C@@H](OC)CN3C)nc3c(F)c(-c4ccc(F)c5sc(N)c(C#N)c45)c(C(F)(F)F)cc23)[C@H]1C (single isomer, unassigned) [Compound 117]
Target Under Test: Avi-KRAS G12C (1-169) GppNHp/RAF1 RBD-3×FLAG (52-151) (Homo sapiens, UniProt P01116, G12C)
Assay Readout: IC50
Assay Result: 5000 to 20000 nM

Compound: C=CC(=O)N1CCC(N(C)c2nc(OC[C@@]34CCCN3C[C@H](F)C4)nc3c(F)c(-c4ccc(F)c5sc(N)c(C#N)c45)c(Cl)cc23)[C@H]1CC (some centres unmarked)
Target Under Test: Avi-KRAS G12C (1-169) GppNHp/RAF1 RBD-3×FLAG (52-151) (Homo sapiens, UniProt P01116, G12C)
Assay Readout: IC50
Assay Result: 500 to 5000 nM

Compound: C=CC(=O)N1CC[C@@H](N(C)c2nc(OC[C@@H]3CCCN3C)nc3c(F)c(-c4ccc(F)c5sc(N)c(C#N)c45)c(C(F)(F)F)cc23)[C@@H]1C
Target Under Test: Avi-KRAS G12C (1-169) GppNHp/RAF1 RBD-3×FLAG (52-151) (Homo sapiens, UniProt P01116, G12C)
Assay Readout: IC50
Assay Result: < 500 nM

Compound: C=CC(=O)N1CCC(N(C)c2nc(OC[C@@H]3CCCN3C)nc3c(F)c(-c4nc(N)cc(C)c4C(F)(F)F)c(Cl)cc23)[C@H]1C (some centres unmarked)
Target Under Test: Avi-KRAS G12C (1-169) GppNHp/RAF1 RBD-3×FLAG (52-151) (Homo sapiens, UniProt P01116, G12C)
Assay Readout: IC50
Assay Result: < 500 nM

# input for lookup
Ask: Name the reported IC50 value associated with the compound `C=CC(=O)N1C2CC1CN(c1nc(OC[C@@]34CCCN3C[C@H](F)C4)nc3c(F)c(-c4ccc(F)c5sc(N)c(C#N)c45)c(C(F)(F)F)cc13)C2`
Reply: < 500 nM
